- assay-notes: self-splicing fitness, log relative to wild type (ln ratio); higher = more splicing; Tetrahymena group I intron in knt gene, E. coli kanamycin selection, DiMSum; sequences stand for … in CUCUCU…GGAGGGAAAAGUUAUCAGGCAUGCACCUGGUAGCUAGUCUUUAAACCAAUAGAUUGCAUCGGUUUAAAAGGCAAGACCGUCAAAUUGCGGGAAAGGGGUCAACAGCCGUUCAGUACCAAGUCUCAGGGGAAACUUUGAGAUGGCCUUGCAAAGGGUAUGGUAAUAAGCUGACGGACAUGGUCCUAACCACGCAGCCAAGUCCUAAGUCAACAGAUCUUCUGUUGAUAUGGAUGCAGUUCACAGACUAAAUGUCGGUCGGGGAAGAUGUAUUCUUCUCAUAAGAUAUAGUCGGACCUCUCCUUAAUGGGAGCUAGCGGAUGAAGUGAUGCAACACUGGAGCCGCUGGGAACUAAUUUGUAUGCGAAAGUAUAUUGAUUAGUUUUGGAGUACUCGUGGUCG;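 further: selection with 25 µg/mL kanamycin versus none on LB agar overnight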
- experimental-context: 30 °C
# self-splicing fitness (ln) >= -2 gives class 1, anything below gives class 0

Worked examples follow.
sequence-input | category
ACGGAGCAAUAUUACGCUAU | class 0
CUAAAGCAAUAUUACGCAAC | class 0
AUCGAGCAAUAUUACGCACC | class 1

Input line: Given the entry UUGUAGCAAUAUUACGAUUC , answer whether its self-splicing fitness (ln) meets or surpasses -2.
Output line: class 0

Input line: Answer whether self-splicing fitness (ln) of UAAAAGCAAUAUUACGCCCA is greater than or equal to -2.
Output line: class 1

Input line: Is reported self-splicing fitness (ln) greater than or equal to -2 here: GUAAAGCAAUAUUACGGUAG
Output line: class 1

Input line: Check the entry GGAGAGCAAUAUUACGUCAG : does self-splicing fitness (ln) equal or exceed -2?
Output line: class 0

----------
- assay-notes: self-splicing fitness, log relative to wild type (ln ratio); higher = more splicing; Tetrahymena group I intron in knt gene, E. coli kanamycin selection, DiMSum; sequences stand for … in CUCUCU…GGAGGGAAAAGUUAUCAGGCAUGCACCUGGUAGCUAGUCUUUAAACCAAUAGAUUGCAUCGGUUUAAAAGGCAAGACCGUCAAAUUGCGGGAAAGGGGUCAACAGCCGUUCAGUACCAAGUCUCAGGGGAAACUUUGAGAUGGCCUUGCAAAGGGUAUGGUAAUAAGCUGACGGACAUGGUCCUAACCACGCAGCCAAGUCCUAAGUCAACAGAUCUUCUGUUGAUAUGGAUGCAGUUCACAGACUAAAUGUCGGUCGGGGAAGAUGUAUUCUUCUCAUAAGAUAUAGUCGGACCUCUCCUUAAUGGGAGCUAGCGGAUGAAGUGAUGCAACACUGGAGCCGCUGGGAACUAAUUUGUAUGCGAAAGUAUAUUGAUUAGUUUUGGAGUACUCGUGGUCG
- experimental-context: 30 °C
measured-attribute: self-splicing fitness (ln)
One number for each entry.

sequence-input | self-splicing fitness (ln)
GCCCAGCAAUAUUACGCACG | -3.39
UAUUAGCAAUAUUACGGGCU | -3.47
UGGAAGCAAUAUUACGAGGA | -2.94
GUUCAGCAAUAUUACGUGCC | -2.59
AGUUAGCAAUAUUACGAAAG | -4.09

Return reported self-splicing fitness (ln) values for all items listed beneath this line.
1. GGAUAGCAAUAUUACGUAGU
2. GAUCAGCAAUAUUACGGGAA
3. GAUGAGCAAUAUUACGUCUG

Output line:
1: -3.21; 2: -0.882; 3: -2.66

Provide self-splicing fitness (ln) values for the following items, in order.
1. UUCCAGCAAUAUUACGCGCA
2. GCUAAGCAAUAUUACGUUCG
3. ACGCAGCAAUAUUACGGUAA

Output line:
1. -0.0641
2. -0.791
3. -2.69

----------
- assay-notes: self-splicing fitness, log relative to wild type (ln ratio); higher = more splicing; Tetrahymena group I intron in knt gene, E. coli kanamycin selection, DiMSum; sequences stand for … in CUCUCU…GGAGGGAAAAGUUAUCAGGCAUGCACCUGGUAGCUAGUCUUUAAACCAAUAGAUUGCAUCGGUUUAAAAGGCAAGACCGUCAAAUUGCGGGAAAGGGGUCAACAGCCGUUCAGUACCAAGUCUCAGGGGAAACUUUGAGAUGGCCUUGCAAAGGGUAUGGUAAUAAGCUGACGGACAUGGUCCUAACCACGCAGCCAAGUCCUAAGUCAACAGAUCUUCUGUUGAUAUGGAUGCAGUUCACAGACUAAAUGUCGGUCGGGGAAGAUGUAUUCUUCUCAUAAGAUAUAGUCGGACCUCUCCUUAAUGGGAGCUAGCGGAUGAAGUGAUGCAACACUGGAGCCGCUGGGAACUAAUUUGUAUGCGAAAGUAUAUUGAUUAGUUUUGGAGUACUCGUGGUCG
- experimental-context: 37 °C
Grouping by measured self-splicing fitness (ln) is done with the following cut points: bucket 1: < -2; bucket 2: ≥ -2 and < -0.6; bucket 3: ≥ -0.6

Solved entries (count: 2):
sequence-input | category
CAUGAGCAAUAUUACGAUGU | bucket 1
GUAUAGCAAUAUUACGCUUU | bucket 1

Input line: Please report the category associated with AAACAGCAAUAUUACGGGGG , nothing else.
Output line: bucket 1

Input line: Which band does UGUGAGCAAUAUUACGGGCU fall in?
Output line: bucket 2

Input line: Bin this entry: GCUGAGCAAUAUUACGAUCG
Output line: bucket 3

----------
- assay-notes: self-splicing fitness, log relative to wild type (ln ratio); higher = more splicing; Tetrahymena group I intron in knt gene, E. coli kanamycin selection, DiMSum; sequences stand for … in CUCUCU…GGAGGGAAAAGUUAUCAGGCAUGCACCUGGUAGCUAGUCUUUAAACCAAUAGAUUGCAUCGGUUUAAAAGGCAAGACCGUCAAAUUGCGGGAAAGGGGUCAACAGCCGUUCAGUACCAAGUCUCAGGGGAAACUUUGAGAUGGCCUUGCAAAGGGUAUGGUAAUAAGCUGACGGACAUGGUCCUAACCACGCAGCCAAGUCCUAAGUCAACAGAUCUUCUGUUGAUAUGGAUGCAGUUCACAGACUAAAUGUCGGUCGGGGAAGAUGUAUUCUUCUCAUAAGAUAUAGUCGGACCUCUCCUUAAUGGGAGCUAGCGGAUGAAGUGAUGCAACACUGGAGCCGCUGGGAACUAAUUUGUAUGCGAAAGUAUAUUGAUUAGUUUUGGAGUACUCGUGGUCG
- experimental-context: 37 °C
Cut-off -0.7 on self-splicing fitness (ln), inclusive. At or above means 1; below means 0.

sequence-input | category
UGUUAGCAAUAUUACGCCGU | 0

Input line: Is self-splicing fitness (ln) at least -0.7? Consider CCGGAGCAAUAUUACGUAGG
Output line: 0

Input line: # bool: self-splicing fitness (ln) of UAUCAGCAAUAUUACGGCAU >= -0.7
Output line: 1

Input line: Can AAUAAGCAAUAUUACGUACA be said to have self-splicing fitness (ln) at or above -0.7?
Output line: 0

Input line: Does the reported self-splicing fitness (ln) for AGCAAGCAAUAUUACGUUCC fall at or above the -0.7 mark?
Output line: 1

Input line: Item CCACAGCAAUAUUACGGGGG with self-splicing fitness (ln) of -0.7 or above?
Output line: 0

Input line: self-splicing fitness (ln) >= -0.7 for GUGAAGCAAUAUUACGCUCU ?
Output line: 1

----------
- assay-notes: self-splicing fitness, log relative to wild type (ln ratio); higher = more splicing; Tetrahymena group I intron in knt gene, E. coli kanamycin selection, DiMSum; sequences stand for … in CUCUCU…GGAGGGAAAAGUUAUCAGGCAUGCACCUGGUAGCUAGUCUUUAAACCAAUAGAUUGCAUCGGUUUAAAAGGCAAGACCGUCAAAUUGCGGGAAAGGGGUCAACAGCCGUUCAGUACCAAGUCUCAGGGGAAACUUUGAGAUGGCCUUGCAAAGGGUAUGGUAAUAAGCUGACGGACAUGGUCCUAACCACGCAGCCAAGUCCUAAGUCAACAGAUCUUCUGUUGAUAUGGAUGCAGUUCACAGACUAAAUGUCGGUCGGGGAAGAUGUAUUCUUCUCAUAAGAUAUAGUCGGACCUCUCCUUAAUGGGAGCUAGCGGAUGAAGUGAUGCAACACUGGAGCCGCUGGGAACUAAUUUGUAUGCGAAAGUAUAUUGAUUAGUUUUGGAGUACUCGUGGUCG
- experimental-context: 30 °C
Threshold check on self-splicing fitness (ln): at or above -3 gives condition met, strictly below gives condition not met.

These solved cases illustrate the format of a correct answer.
sequence-input | category
CGGAAGCAAUAUUACGACCU | condition met
UAAGAGCAAUAUUACGAGGG | condition not met
CCAUAGCAAUAUUACGUGAG | condition met

Input line: Answer whether self-splicing fitness (ln) of UCGCAGCAAUAUUACGACGG is greater than or equal to -3.
Output line: condition met

Input line: Answer whether self-splicing fitness (ln) of AGGCAGCAAUAUUACGCCCG is greater than or equal to -3.
Output line: condition met
